# assay_summary: Mammalian cytotoxicity assay (MTT)
# Format: cell-based
# recorded_conditions: rhesus monkey, LLCMK2 cells, S1 Table; maximum concentration used 250 µM; read-out: CC50
# CC50 at 72 h listing for each entry below

Reference set, count: 3
Record N#CC1(NC(=O)[C@H](Cc2c[nH]c3ccccc23)NC(=O)c2ccnc3cc(Cl)ccc23)CC1 [Compound 14] , field CC50 at 72 h: > 100 µM

Entry CC(C)C[C@H](NC(=O)c1ccc(N)nc1)C(=O)NC1(C#N)CC1 [Compound 17] , CC50 at 72 h reported as > 100 µM

response.value for CC(C)C[C@H](NC(=O)c1cc(C(C)(C)C)nn1C)C(=O)N[C@H](C#N)[C@@H](C)OCc1ccccc1 [Compound 58] (field: CC50 at 72 h) = > 100 µM

Continuing:
The recorded CC50 at 72 h for Cn1nc(C(C)(C)C)cc1C(=O)N[C@@H](Cc1ccccc1)C(=O)N[C@@H](C#N)Cc1ccccc1 [Compound 51] is 42.3 µM

Query Cn1nc(C(C)(C)C)cc1C(=O)N[C@@H](Cc1ccccc1)C(=O)N[C@H](C#N)Cc1ccncc1 [Compound 55] yields CC50 at 72 h of > 100 µM

Record summary for C[C@H](OCc1ccccc1)[C@H](C#N)NC(=O)[C@H](Cc1ccccc1)NC(=O)c1cc(C(C)(C)C)nn1C [Compound 57] : reported CC50 at 72 h = 141 µM

Note to self: CC50 at 72 h recorded for CC(C)C[C@H](NC(=O)c1cc(C(C)(C)C)nn1C)C(=O)NC1(C#N)CC1 [Compound 11] was > 100 µM

According to the records, this compound CC(C)C[C@H](NC(=O)c1cnc2[nH]ccc2c1)C(=O)NC1(C#N)CC1 [Compound 18] displays CC50 at 72 h of > 100 µM

---

# assay_summary: Mammalian cytotoxicity assay (MTT);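 also: Read-out is absorbance at 570 nm of formazan taken up in DMSO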
# Format: cell-based
# recorded_conditions: rhesus monkey, LLCMK2 cells, S1 Table; maximum concentration used 250 µM; read-out: CC50
measure: CC50 at 72 h

Example cases with answers are listed next.
// CC50 at 72 h lookup, molecule = `C[C@@H](OCc1ccccc1)[C@@H](C#N)NC(=O)[C@H](Cc1cccc(Cl)c1)NC(=O)c1cc(C(C)(C)C)nn1C` , result: 125 µM

Sample `CC(C)C[C@H](NC(=O)c1ccnc2cc(Cl)ccc12)C(=O)NC1(C#N)CC1` ; CC50 at 72 h observed: > 100 µM

Per the records, this molecule ( `CC(C)C[C@H](NC(=O)c1cc(C(C)(C)C)nn1C)C(=O)N[C@@H](C#N)[C@H](C)OCc1ccccc1` ) has CC50 at 72 h equal to > 100 µM

Please examine the following record next.
# molecule `C[C@@H](O)[C@H](NC(=O)c1cc(C(C)(C)C)nn1C)C(=O)NC1(C#N)CC1` ; its CC50 at 72 h = > 100 µM
